Where do the numbers come from? From patent US20180099967A1.

- Tested on: HIV-1
- protocol-notes: microbe, parasite or virus in culture
- Assay type: cell-based, HIV-1 (H9IIIB or NL4-3 virus)
- assay-context: Human immunodeficiency virus 1, read-out: WILD TYPE CELL ASSAY Viking IP (100% NHS) (nM)
Labelling: IC50 reported below 100 nM becomes 1; at or above becomes -1.

Worked cases, answers included:
CCN[C@H]1C[C@@H]2CN(CC)C(=O)c3c(O)c(=O)c(C(=O)NCc4c(F)cc(F)cc4F)c1n32: -1
CCN1C[C@H]2C[C@@H](NS(C)(=O)=O)c3c(C(=O)NCc4ccc(F)c(F)c4F)c(=O)c(O)c(n32)C1=O: 1
CCN[C@@H]1C[C@@H]2CN(CC)C(=O)c3c(O)c(=O)c(C(=O)NCc4c(F)cc(F)cc4F)c1n32: 1
CCN1C[C@H]2C[C@@H](NS(C)(=O)=O)c3c(C(=O)NCc4ccc(F)c(Cl)c4F)c(=O)c(O)c(n32)C1=O: 1
CCN1C[C@@H]2C[C@@H](NC(C)=O)c3c(C(=O)NCc4ccc(F)cc4F)c(=O)c(O)c(n32)C1=O: 1

Input: Please determine if CCN1C[C@H]2C[C@@H](NS(=O)(=O)c3ccc(C)cc3)c3c(C(=O)NCc4ccc(F)cc4F)c(=O)c(O)c(n32)C1=O is below 100 nM in terms of IC50.
Output: -1

Input: Criterion: IC50 strictly below 100 nM. Is it met by CCN1C[C@H]2C[C@H](NC)c3c(C(=O)NCc4ccc(F)cc4F)c(=O)c(O)c(n32)C1=O ?
Output: -1

Input: API: query returns whether the compound falls strictly under 100 nM in IC50. Query: CCN1C[C@H]2C[C@H](NS(C)(=O)=O)c3c(C(=O)NCc4ccc(F)c(F)c4F)c(=O)c(O)c(n32)C1=O
Output: -1

Input: Here's an entry: CCCN[C@H]1C[C@@H]2CN(CC)C(=O)c3c(O)c(=O)c(C(=O)NCc4ccc(F)cc4F)c1n32 . Is its IC50 below 100 nM?
Output: -1

Input: is_below(IC50, 100 nM) for CCN1C[C@H]2C[C@H](NCCC(F)(F)F)c3c(C(=O)NCc4ccc(F)cc4F)c(=O)c(O)c(n32)C1=O ?
Output: -1

Input: IC50 under 100 nM? Item: CCN1C[C@H]2C[C@H](NS(C)(=O)=O)c3c(C(=O)NCc4ccc(F)c(Cl)c4F)c(=O)c(O)c(n32)C1=O
Output: -1

Input: Please determine if CCN[C@@H]1C[C@H]2CN(CC)C(=O)c3c(O)c(=O)c(C(=O)NCc4ccc(F)cc4F)c1n32 is below 100 nM in terms of IC50.
Output: 1

Input: Strictly below 100 nM in IC50? CCN[C@H]1C[C@H]2CN(CC)C(=O)c3c(O)c(=O)c(C(=O)NCc4ccc(F)cc4F)c1n32
Output: -1

Input: Please state whether IC50 is below 100 nM for CCN1C[C@@H]2C[C@H](NC)c3c(C(=O)NCc4ccc(F)cc4F)c(=O)c(O)c(n32)C1=O
Output: -1

Input: Please indicate whether the reported IC50 of CCN1C[C@H]2C[C@H](NCCOC)c3c(C(=O)NCc4ccc(F)cc4F)c(=O)c(O)c(n32)C1=O is strictly below 100 nM.
Output: -1

Input: is_below(IC50, 100 nM) for CCN1C[C@H]2C[C@H](NCC3CC3)c3c(C(=O)NCc4ccc(F)cc4F)c(=O)c(O)c(n32)C1=O ?
Output: -1

Input: Say whether its IC50 is strictly beneath 100 nM. Entry: CCN1C[C@@H]2C[C@@H](NS(C)(=O)=O)c3c(C(=O)NCc4ccc(F)cc4F)c(=O)c(O)c(n32)C1=O
Output: 1
